viability, T/C values by entry
system: 415267-285-R-J2-PDC complex spheroid viability; experiment: Anticancer human tumor 415267-285-R-J2-PDC patient-derived breast carcinoma cell line growth inhibition [POLQ]; details: second compound 0.316 µM; first compound 0.000316 µM; stronger effect = lower value

molecule	viability, T/C [%]
Cn1ncnc1[C@H]1c2n[nH]c(=O)c3cc(F)cc(c23)N[C@@H]1c1ccc(F)cc1 + Cc1cccc(N(C)C(=O)C2C(O)CCN2c2nc(C)cc(C(F)(F)F)c2C#N)c1	97.1
CC[C@@]1(O)C(=O)OCc2c1cc1n(c2=O)Cc2cc3c(CN(C)C)c(O)ccc3nc2-1 + COC1C(OC(N)=O)C(O)C(Oc2ccc3c(O)c(NC(=O)c4ccc(O)c(CC=C(C)C)c4)c(=O)oc3c2C)OC1(C)C	90
CC[C@@]1(O)C(=O)OCc2c1cc1n(c2=O)Cc2cc3c(CN(C)C)c(O)ccc3nc2-1 + Nc1ccc(C#CCN(C(=O)Cc2ncc(C(F)(F)F)cc2C(F)(F)F)c2ccc(F)cc2)nn1	115
Cn1ncnc1[C@H]1c2n[nH]c(=O)c3cc(F)cc(c23)N[C@@H]1c1ccc(F)cc1 + Nc1ccc(C#CCN(C(=O)Cc2ncc(C(F)(F)F)cc2C(F)(F)F)c2ccc(F)cc2)nn1	88.7
CC[C@@]1(O)C(=O)OCc2c1cc1n(c2=O)Cc2cc3c(CN(C)C)c(O)ccc3nc2-1 + Cc1cccc(N(C)C(=O)C2C(O)CCN2c2nc(C)cc(C(F)(F)F)c2C#N)c1	102
Cn1ncnc1[C@H]1c2n[nH]c(=O)c3cc(F)cc(c23)N[C@@H]1c1ccc(F)cc1 + COC1C(OC(N)=O)C(O)C(Oc2ccc3c(O)c(NC(=O)c4ccc(O)c(CC=C(C)C)c4)c(=O)oc3c2C)OC1(C)C	112

###

Test system: 415267-285-R-J2-PDC complex spheroid viability
Test: Anticancer human tumor 415267-285-R-J2-PDC cell line growth inhibition [POLQ]; active means viability on the fitted dose curve at most 10% of control; inactive means the rest;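 further: spheroids exposed to compounds for one week before readout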
Settings: second compound 3.16 µM; first compound 3.16 µM
Method: Multicellular complex tumor spheroid response to Polymerase (POL) inhibitors (novobiocin, ART-558, RP6685) in combination with a variety of drugs and investigational agents in selected tumor cell lines The POL inhibitors (novobiocin, ART-558, and RP6685) were evaluated both individually and in combination with standard of care and investigational anticancer small molecules within a complex spheroid model of solid tumors. . […]
Outcomes: Y = active, N = inactive

compound	label
C#Cc1c(F)ccc2cc(O)cc(-c3ncc4c(N5CC6CCC(C5)N6)nc(OCC56CCCN5CC(F)C6)nc4c3F)c12 (stereo not drawn) + Nc1ccc(C#CCN(C(=O)Cc2ncc(C(F)(F)F)cc2C(F)(F)F)c2ccc(F)cc2)nn1	N
COc1cc(C2c3cc4c(cc3C(OC3OC5COC(C)OC5C(O)C3O)C3COC(=O)C23)OCO4)cc(OC)c1O (stereo not drawn) + COC1C(OC(N)=O)C(O)C(Oc2ccc3c(O)c(NC(=O)c4ccc(O)c(CC=C(C)C)c4)c(=O)oc3c2C)OC1(C)C	Y
CC1COCCN1c1cc(C2(O)CC3CCC(C2)O3)c2cnn(-c3ccn[nH]3)c2n1 (stereo not drawn) + COC1C(OC(N)=O)C(O)C(Oc2ccc3c(O)c(NC(=O)c4ccc(O)c(CC=C(C)C)c4)c(=O)oc3c2C)OC1(C)C	Y

###

system: 415267-285-R-J2-PDC complex spheroid viability; assay: Anticancer human tumor 415267-285-R-J2-PDC cell line growth inhibition [POLQ]; conditions: second compound 0.316 µM; first compound 3.16 µM; active means viability on the fitted dose curve at most 10% of control; inactive means the rest;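 further: spheroids exposed to compounds for one week before readout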
Outcomes: active, inactive

molecule	label
COc1cc2cc(C(=O)CCC(=O)O)sc2cc1OC + COC1C(OC(N)=O)C(O)C(Oc2ccc3c(O)c(NC(=O)c4ccc(O)c(CC=C(C)C)c4)c(=O)oc3c2C)OC1(C)C	inactive
C#Cc1c(F)ccc2cc(O)cc(-c3ncc4c(N5CC6CCC(C5)N6)nc(OCC56CCCN5CC(F)C6)nc4c3F)c12 (stereo unspecified) + COC1C(OC(N)=O)C(O)C(Oc2ccc3c(O)c(NC(=O)c4ccc(O)c(CC=C(C)C)c4)c(=O)oc3c2C)OC1(C)C	inactive
O=C(Nc1ccc(O)c(NS(=O)(=O)c2ccc(F)cc2)c1)c1ccc(-c2ccccc2)cc1 + Nc1ccc(C#CCN(C(=O)Cc2ncc(C(F)(F)F)cc2C(F)(F)F)c2ccc(F)cc2)nn1	inactive
COc1cc2cc(C(=O)CCC(=O)O)sc2cc1OC + Nc1ccc(C#CCN(C(=O)Cc2ncc(C(F)(F)F)cc2C(F)(F)F)c2ccc(F)cc2)nn1	inactive
O=C(Nc1ccc(O)c(NS(=O)(=O)c2ccc(F)cc2)c1)c1ccc(-c2ccccc2)cc1 + COC1C(OC(N)=O)C(O)C(Oc2ccc3c(O)c(NC(=O)c4ccc(O)c(CC=C(C)C)c4)c(=O)oc3c2C)OC1(C)C	inactive
COc1cccc2c1C(=O)c1c(O)c3c(c(O)c1C2=O)CC(O)(C(=O)CO)CC3OC1CC(N)C(O)C(C)O1 (stereo unspecified) + COC1C(OC(N)=O)C(O)C(Oc2ccc3c(O)c(NC(=O)c4ccc(O)c(CC=C(C)C)c4)c(=O)oc3c2C)OC1(C)C	active
CC1COCCN1c1cc(C2(S(C)(=N)=O)CC2)nc(-c2ccnc3[nH]ccc23)n1 (stereo unspecified) + Cc1cccc(N(C)C(=O)C2C(O)CCN2c2nc(C)cc(C(F)(F)F)c2C#N)c1	active
CCc1cc2c(N3CCc4c(cc(Cn5ccnc5)cc4-c4cn(C)nc4C(F)(F)F)C3=O)cc(C)nc2c(OC)n1 + Cc1cccc(N(C)C(=O)C2C(O)CCN2c2nc(C)cc(C(F)(F)F)c2C#N)c1	inactive
COc1cccc2c1C(=O)c1c(O)c3c(c(O)c1C2=O)CC(O)(C(=O)CO)CC3OC1CC(N)C(O)C(C)O1 (stereo unspecified) + Nc1ccc(C#CCN(C(=O)Cc2ncc(C(F)(F)F)cc2C(F)(F)F)c2ccc(F)cc2)nn1	active
CC1COCCN1c1cc(-c2ccnn2C)c2ccnc(-c3ccn[nH]3)c2n1 (stereo unspecified) + Cc1cccc(N(C)C(=O)C2C(O)CCN2c2nc(C)cc(C(F)(F)F)c2C#N)c1	active
CC1COCCN1c1cc(C2(O)CC3CCC(C2)O3)c2cnn(-c3ccn[nH]3)c2n1 (stereo unspecified) + Cc1cccc(N(C)C(=O)C2C(O)CCN2c2nc(C)cc(C(F)(F)F)c2C#N)c1	active
COc1ccc([C@@H](O)c2cc(-c3ncnc4cc(N5CCOCC5)ccc34)c(F)cc2Cl)nn1 + Cc1cccc(N(C)C(=O)C2C(O)CCN2c2nc(C)cc(C(F)(F)F)c2C#N)c1	inactive
CCc1cc2c(N3CCc4c(cc(Cn5ccnc5)cc4-c4cn(C)nc4C(F)(F)F)C3=O)ccnc2c(OC)n1 + COC1C(OC(N)=O)C(O)C(Oc2ccc3c(O)c(NC(=O)c4ccc(O)c(CC=C(C)C)c4)c(=O)oc3c2C)OC1(C)C	inactive
CCc1cc2c(N3CCc4c(cc(Cn5ccnc5)cc4-c4cn(C)nc4C(F)(F)F)C3=O)ccnc2c(OC)n1 + Cc1cccc(N(C)C(=O)C2C(O)CCN2c2nc(C)cc(C(F)(F)F)c2C#N)c1	inactive
O=c1[nH]cc(F)c(=O)[nH]1 + Nc1ccc(C#CCN(C(=O)Cc2ncc(C(F)(F)F)cc2C(F)(F)F)c2ccc(F)cc2)nn1	inactive
Nc1ccn(C2OC(CO)C(O)C2(F)F)c(=O)n1 (stereo unspecified) + Nc1ccc(C#CCN(C(=O)Cc2ncc(C(F)(F)F)cc2C(F)(F)F)c2ccc(F)cc2)nn1	active
O=c1[nH]cc(F)c(=O)[nH]1 + COC1C(OC(N)=O)C(O)C(Oc2ccc3c(O)c(NC(=O)c4ccc(O)c(CC=C(C)C)c4)c(=O)oc3c2C)OC1(C)C	inactive
COc1cc2cc(C(=O)CCC(=O)O)sc2cc1OC + Cc1cccc(N(C)C(=O)C2C(O)CCN2c2nc(C)cc(C(F)(F)F)c2C#N)c1	inactive
COc1ccc([C@@H](O)c2cc(-c3ncnc4cc(N5CCOCC5)ccc34)c(F)cc2Cl)nn1 + Nc1ccc(C#CCN(C(=O)Cc2ncc(C(F)(F)F)cc2C(F)(F)F)c2ccc(F)cc2)nn1	inactive
Nc1ccn(C2OC(CO)C(O)C2(F)F)c(=O)n1 (stereo unspecified) + Cc1cccc(N(C)C(=O)C2C(O)CCN2c2nc(C)cc(C(F)(F)F)c2C#N)c1	active
O=C(c1cc(Cc2n[nH]c(=O)c3ccccc23)ccc1F)N1CCN(C(=O)C2CC2)CC1 + COC1C(OC(N)=O)C(O)C(Oc2ccc3c(O)c(NC(=O)c4ccc(O)c(CC=C(C)C)c4)c(=O)oc3c2C)OC1(C)C	inactive

###

test system: 415267-285-R-J2-PDC complex spheroid viability; assay: Anticancer human tumor 415267-285-R-J2-PDC cell line growth inhibition [POLQ]; conditions: curve of first compound; second compound 0.316 µM;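 further: spheroids exposed to compounds for one week before readout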

compound	units	rel	IC50
CC1COCCN1c1cc(C2(S(C)(=N)=O)CC2)nc(-c2ccnc3[nH]ccc23)n1 (stereo not given) + COC1C(OC(N)=O)C(O)C(Oc2ccc3c(O)c(NC(=O)c4ccc(O)c(CC=C(C)C)c4)c(=O)oc3c2C)OC1(C)C	nM	=	504
CCc1c2c(nc3ccc(O)cc13)-c1cc3c(c(=O)n1C2)COC(=O)[C@]3(O)CC + Nc1ccc(C#CCN(C(=O)Cc2ncc(C(F)(F)F)cc2C(F)(F)F)c2ccc(F)cc2)nn1	nM	=	3.49
CCc1cc2c(N3CCc4c(cc(Cn5ccnc5)cc4-c4cn(C)nc4C(F)(F)F)C3=O)ccnc2c(OC)n1 + COC1C(OC(N)=O)C(O)C(Oc2ccc3c(O)c(NC(=O)c4ccc(O)c(CC=C(C)C)c4)c(=O)oc3c2C)OC1(C)C	nM	>	10000
C=CCn1c(=O)c2cnc(Nc3ccc(N4CCN(C)CC4)cc3)nc2n1-c1cccc(C(C)(C)O)n1 + Cc1cccc(N(C)C(=O)C2C(O)CCN2c2nc(C)cc(C(F)(F)F)c2C#N)c1	nM	=	460
COc1cc(C2c3cc4c(cc3C(OC3OC5COC(C)OC5C(O)C3O)C3COC(=O)C23)OCO4)cc(OC)c1O (stereo not given) + Cc1cccc(N(C)C(=O)C2C(O)CCN2c2nc(C)cc(C(F)(F)F)c2C#N)c1	nM	=	107

Data origin, for the record: PubChem BioAssay AID1963847
